Reference source: patent US10941182

# Assay Target: T1, rat APJ receptor (rat, UniProt Q9JHG3 1-377)
# T1 sequence (looked up): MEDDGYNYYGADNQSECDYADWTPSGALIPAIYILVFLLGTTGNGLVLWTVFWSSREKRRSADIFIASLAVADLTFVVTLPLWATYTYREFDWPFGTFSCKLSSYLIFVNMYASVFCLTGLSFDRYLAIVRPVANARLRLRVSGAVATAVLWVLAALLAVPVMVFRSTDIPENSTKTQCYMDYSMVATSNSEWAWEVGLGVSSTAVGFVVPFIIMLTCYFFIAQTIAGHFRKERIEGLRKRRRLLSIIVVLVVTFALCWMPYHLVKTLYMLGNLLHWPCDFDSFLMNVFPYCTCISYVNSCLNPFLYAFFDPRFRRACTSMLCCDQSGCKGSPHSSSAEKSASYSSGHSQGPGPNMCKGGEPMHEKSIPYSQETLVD
# Experiment Notes: cell-based or functional assay
Starred links: 1 amine or outer side, 2 acyl side, 3 side chain; linkers in the order of their positions; H or OH if unused. Non-standard residues stand in square brackets, D forms with d. Primed or numbered codes have the meaning given here. *: point of attachment. AC4Abu = α-carboxy-4-aminobutyric acid, O=C(C(CCN[*:1])C(=O)[*:3])[*:2]; Oic = O=C(O)[C@@H]1C[C@@H]2CCCC[C@@H]2N1; dPhe(4-Cl) = N[C@H](Cc1ccc(Cl)cc1)C(=O)O; γGlu = O=C(O)[C@H](CCC(=O)[*:2])N[*:1]; d(β3hF) = N[C@@H](CC(=O)O)Cc1ccccc1; NMeR = CN[C@@H](CCCNC(=N)N)C(=O)O; Palmitoyl = CCCCCCCCCCCCCCCC(=O)*; β3hF = N[C@H](CC(=O)O)Cc1ccccc1; Cha = N[C@@H](CC1CCCCC1)C(=O)O; Nle = CCCC[C@H](N)C(=O)O; Pip′ = not defined here; AEEA = NCCOCCOCC(=O)O
# strict inequality: EC50 Rat APJ Receptor < 20 nM yields y, everything else yields n

Q: Is EC50 Rat APJ Receptor strictly under 20 nM for the entry XXXQRPRLSHKGPMPF ({ODDA}[AC4Abu][Aeea][Aeea]QRPRLSHKGPMPF{COOH}) [SEQ ID NO: 290] ?
Ans: n

Q: Is EC50 Rat APJ Receptor strictly under 20 nM for the entry KLRKHNCLQRRCMPLHSRVPFP [SEQ ID NO: 15] ?
Ans: y

Q: Is EC50 Rat APJ Receptor strictly under 20 nM for the entry Palmitoyl-[AC4Abu][AEEA][AEEA][dQ]RP[NMeR][Cha]SHKG[Pip′][Nle]P[β3hF]-OH [SEQ ID NO: 647] ?
Ans: y

Q: Is EC50 Rat APJ Receptor strictly under 20 nM for the entry Palmitoyl-[AC4Abu][AEEA][AEEA][dQ]RP[NMeR][Cha]SHKG[Pip′][Nle]P[d(β3hF)]-OH [SEQ ID NO: 568] ?
Ans: y

Q: Is EC50 Rat APJ Receptor strictly under 20 nM for the entry Palmitoyl-[γGlu][AEEA][AEEA][dQ]RP[NMeR][Cha]SHKG[Oic][Nle][Pip′][dPhe(4-Cl)]-OH [SEQ ID NO: 601] ?
Ans: y
